Items are presented alongside their recorded pEC50.
- assay-target: T1, Human TIGIT-His protein (Sino Biological, 10917-H08H) (human, UniProt Q495A1 22-141)
- T1 sequence (looked up): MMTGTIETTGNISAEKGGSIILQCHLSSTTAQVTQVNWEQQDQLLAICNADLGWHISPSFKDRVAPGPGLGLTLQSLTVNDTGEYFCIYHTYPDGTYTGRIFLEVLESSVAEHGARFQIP
- procedure-summary: ELISA, human TIGIT-His coated
pEC50: −log10 of the molar value.

# binder, pEC50
data = [
    ("SHS006-17CHI (antibody, V domains shown, Chimeric antibody with human heavy and light chain constant regions) VH: QVTLKESGPGILQPSQTLSLTCTFSGFSLRTYGLGVGWIRQLSGKGLEWLANIWWDDDEYYNPSLKNRLTISKDTSNNQAFLKITNVDTADTATYYCARIARPHYYWDGRYILDVWGQGASVTVSS VL: DIMMTQSPLSVAVTPGESASISCRSSKSLLHSNGITYLSWYLQRPEKSPQLLIFQISNLASGVSDRFSGSGSGTDFTLIISKVETEDVGIYYCMQFLEVPYTFGAGTKLELK", 8.80),
    ("SHS006-T-Hu23-53 (antibody, IgG4, V domains shown, Humanized; also called SHS006-HuT23-53; HuT23-53) VH: EVQLVESGGGLVQPGGSLRLSCAASGFTFSDHWMSWVRQAPGKTMEWIGNIQYDGSYTNYAPSLKNRFTISRDNAKNSLYLQMNSLRAEDTATYYCTRGHFRITMASMGASASVYWGQGTMVTVSS VL: DIQMTQSPSSLSASVGDRVTITCRTSQDIGNSLRWFQQKPGKAPKLLIHGATNLANGVPSRFSGSGSGTDFTLTISSLQPEDFATYYCLQHNEYPLTFGQGTKLEIK", 8.61),
    ("SHS006-T-Hu17-31 (antibody, IgG4, V domains shown, Humanized) VH: QVTLKESGPVLVKPTETLTLTCTFSGFSLRTYGLGVGWIRQPPGKALEWLANIWWDDDEYYNPSLKNRLTISKDTSKSQAVLTMTNMDPVDTATYYCARIARPHYYWDGRYILDVWGQGTTVTVSS VL: DIVMTQSPLSLPVTPGEPASISCRSSKSLLHSNGITYLSWYLQKPGQSPQLLIYQISNLASGVPDRFSGSGSGTDFTLKISRVEAEDVGVYYCMQFLEVPYTFGQGTKLEIK", 8.80),
    ("SHS006-23CHI (antibody, V domains shown, Chimeric antibody with human heavy and light chain constant regions) VH: EVQLVESEGGLVQPGASVKLSCVGSGFSFSDHWMSWVRQTPGKTMEWIGNIQYDGSYTNYAPSLKNRFTISRDNAKNTLYLQMTNLRSEDTATYYCTRGHFRITMASMGASASVYWGQGVMVTVSS VL: DIQMTQSPSSLPTSLGDRVTITCRTSQDIGNSLRWFQQKPGKSPRLMIHGATNLANGVPSRFSGSRAGSDYSLTINSLESEDMAMYYCLQHNEYPLTFGSGTKLEIK", 8.77),
]
